- protocol.details: amyloid nucleation score (Sup35N fusion, yeast selection) (log enrichment); library NNK3; higher = more nucleation; inactive = no reads after selection;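 also: zero at mode of non-aggregating sequences after 7 days selection at 30°C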
reported.metric: amyloid nucleation score

The cases that follow already have their amyloid nucleation score on record.
CCWRNLYSFLRKGSYSRCM :: inactive
WRFFVVRKNSTSA :: inactive
GVRNGPKLILFYLRSWHEAY :: inactive
MLNVINVYHVSSCGLRGNFE :: 2.63
LYSIWGRNRGHGMIGWDPLT :: inactive

Task: Give amyloid nucleation score for `IIFLQIPNLFMGNKTRQKGA`
Result: inactive

Task: Give amyloid nucleation score for `LVRVGSSNYLVNQIRPNISA`
Result: inactive

Task: Give amyloid nucleation score for `MWVSAYWYNTCRYRFLSV`
Result: inactive

Task: Give amyloid nucleation score for `QICRGCRYVNVYYVPLSLDL`
Result: 1.32

Task: Give amyloid nucleation score for `GRFKSGSLPFRRSGE`
Result: inactive

Task: Give amyloid nucleation score for `CIMFVFILLQYAFYIYILLV`
Result: inactive

Task: Give amyloid nucleation score for `YIALCLRYHTFLMKQEFHVG`
Result: inactive

Task: Give amyloid nucleation score for `IKNEQSARRGASSCGGTADK`
Result: inactive

Task: Give amyloid nucleation score for `GVFCSVINLIDATVVN`
Result: inactive

Task: Give amyloid nucleation score for `MRNGCCNACKILLDIRLFL`
Result: 1.96

Task: Give amyloid nucleation score for `SSVEHWPQNVFNRYFLYGVY`
Result: inactive

---

- protocol.details: amyloid nucleation score (Sup35N fusion, yeast selection) (log enrichment); library NNK1; higher = more nucleation; inactive = no reads after selection
reported.metric: amyloid nucleation score

FTRDVYRWKYPNYLVKYSTP :: -0.199
TKNVLLTYGHPMLDMFAVVY :: inactive
TTRCVFSPDNVDTDY :: inactive

---

- protocol.details: amyloid nucleation score (Sup35N fusion, yeast selection) (log enrichment); library NNK2; higher = more nucleation; inactive = no reads after selection
param class (str): category from amyloid nucleation score; see ranges bucket 1 = under -0.2, bucket 2 = from -0.2 up to 1, bucket 3 = 1 and over

Task: Which category fits this record: `DVHFCNNLLLKRRRGSVVA`
Result: bucket 2

Task: Which category fits this record: `FGFSEGEMVPSFI`
Result: bucket 1

Task: Which category fits this record: `WGVFWLPH`
Result: bucket 1

Task: Which category fits this record: `RHNKNRSVCSYRSKYAKKYV`
Result: bucket 1

Task: Which category fits this record: `GGDDVEDMYALGPNFFEGG`
Result: bucket 2

Task: Which category fits this record: `ASDVKGSANDVVGFWVLPDQ`
Result: bucket 3

Task: Which category fits this record: `TCVVMAKGKLVVPVQEYPCV`
Result: bucket 3

Task: Which category fits this record: `LAIDIMPFPCDTLS`
Result: bucket 1

Task: Which category fits this record: `SMYPGLDT`
Result: bucket 1

Task: Which category fits this record: `VYWCLITFNHEDAHSYCFL`
Result: bucket 3

Task: Which category fits this record: `SRPMTWGRKDVGSGSLQDYA`
Result: bucket 2

Task: Which category fits this record: `RYGVRSQCYGVTKRLFAITA`
Result: bucket 2

Task: Which category fits this record: `NSGSGAAFGVSLHVVNCARS`
Result: bucket 2

Task: Which category fits this record: `LRSQSHR`
Result: bucket 3

Task: Which category fits this record: `SYILGILFVFYVCETKYLYL`
Result: bucket 2
